tested on: NOMO1; test: cell viability relative to DMSO control; higher = less cytotoxic; conditions: RPMI 5 mM glucose + 10% FBS; 48 h; 0.0211 µM
Readout Kind: cell viability

CCOC(=O)c1ccc(C#Cc2ccc3c(c2)C(C)(C)CCS3)nc1 | 100%

Give the reported value of cell viability for this record: "CC1(C)OC/2=C(\[C@H](NCC3=CC=CC=C3)[C@@H]1O)C(=O)C4=CC=CC=C4C2=O"
95.5%

In one line, give reported cell viability of the entry O=C1[O][Pt]2([NH]C3CCCCC3[NH]2)[O]C1=O (configuration not stated) .
119%

Note cell viability for the compound shown: CN1C(=O)COc2c(C(=O)NC3CN4CCC3CC4)cc(Cl)cc21 (configuration not stated)
88.8%

----------
Reported cell viability is given for each of the following compounds.
test system: NOMO1; assay: cell viability relative to DMSO control; higher = less cytotoxic; conditions: RPMI 5 mM glucose + 10% FBS; 48 h; 0.00702 µM
Quick reminder: number only, in %, skip the unit.

Cc1cnc(Nc2ccc(OCCN3CCCC3)cc2)nc1Nc1cccc([S+](=O)([O-])NC(C)(C)C)c1 | 104

Moving on to the next compound.
Return cell viability (reported value) for this compound: "N#Cc1c(C2CCNCC2)cc(-c2c(O)cccc2OCC2CC2)nc1N"
104

----------
system: P12-Ichikawa; test: cell viability relative to DMSO control; higher = less cytotoxic; conditions: RPMI 5 mM glucose + 10% FBS; 48 h; 5.12 µM
Readout Kind: cell viability (%)
Please respond with the number in % and leave the unit unwritten.

COc1cc(/C=C/C(=O)CC(=O)/C=C/c2ccc(O)c(OC)c2)ccc1O | 99.1

Entry "CCN(CC)CCOC1=CC=C(NC2=NC=C3\C=C(/C(=O)N(C)C3=N2)C4=C(Cl)C=CC=C4Cl)C=C1" needs its cell viability filled in; supply it.
13.3

Tell us which cell viability value is on record for "CCC(CC)[C@H](NC(C)=O)[C@@H]1[C@H](O)[C@@H](C(=O)O)C[C@H]1NC(=N)N"
87.4

Output cell viability of "CC1=CC2=C(O1)C(=C3OC(=O)\C=C(C)/C3=C2)C"
107

Give reported cell viability value for CC1OC(OC/2=C(/OC3=C(C(=CC(=C3)O)O)C2=O)C4=CC=C(O)C=C4)C(O)C(OC(C)=O)C1OC(C)=O (stereo not given)
105

Annotate the compound "COc1cc2nc(-c3ccc(N4CCN(C)CC4)cc3)nc(NCCN3CCOCC3)c2cc1OC" with its measured cell viability.
36.7

Identify cell viability associated with the compound Cc1ccccc1C(C(=O)NC1CCCCC1)N(C(=O)CNc1ccc(C#N)cc1)c1cccc(F)c1 (stereo not given)
99

Please give the documented cell viability of "CCC(=O)O[C@@]1([C@H](C)C[C@H]2[C@@H]3C[C@H](F)\C4=C\C(=O)\C=C/[C@]4(C)[C@@]3(F)[C@@H](O)C[C@]12C)C(=O)SCF"
59.2

Provide cell viability value for the following compound: "CC1(C)O[C@H]2CC(=O)OC[C@]23[C@H]2CC[C@@]4(C)[C@H](c5ccoc5)OC(=O)[C@H]5O[C@]54[C@]2(C)C(=O)C[C@@H]13"
107

Given the compound "CCOC(=O)c1ncn2c1CN(C)C(=O)c1cc(F)ccc1-2" , write its reported cell viability.
92.2

----------
system: SEM cells; assay: AUC of viability dose-response curve (% viability x log10 dose units); higher = less sensitive; conditions: RPMI 5 mM glucose + 10% FBS; 48 h
AUC of viability dose-response curve strictly under 400 means true; at 400 or over means false.

AUC of viability dose-response curve strictly < 400 for this compound? "C[C@H]1[C@@H](CC(C[C@H]2O[C@@H]3O[C@]4(C)CC[C@H]5[C@H](C)CC[C@@H]([C@H]2C)[C@@]35OO4)C[S+](=O)([O-])c2ccc(COC(=O)N(C)C)cc2)O[C@@H]2O[C@]3(C)CC[C@H]4[C@H](C)CC[C@@H]1[C@@]24OO3"
true

----------
tested on: SEM cells; assay: cell viability relative to DMSO control; higher = less cytotoxic; conditions: RPMI 5 mM glucose + 10% dialyzed FBS; 48 h; 1.71 µM
Readout Kind: cell viability (%)
Use % as the unit, but write only the number.

CC1OC(OC/2=C(/OC3=C(C(=CC(=C3)O)O)C2=O)C4=CC=C(O)C=C4)C(O)C(OC(C)=O)C1OC(C)=O (stereo not given) | 95.5
C[C@@H]1CN(CC(=O)N2CC(C)(C)c3ncc(Cc4ccc(F)cc4)cc32)[C@@H](CN2CCOC[C@H]2C)CN1 | 104
NC/1=N/C(=O)N(/C=C1)[C@H]2CC[C@@H](CO)O2 | 98.4
CCOc1ccccc1OCCNC(C)Cc1ccc(OC)c([S+](N)(=O)[O-])c1 (stereo not given) | 129
CO[C@@H]1[C@H](N(C)C(=O)c2ccccc2)C[C@H]2O[C@]1(C)n1c3ccccc3c3c4c(c5c6ccccc6n2c5c31)C(=O)NC4 | 34.7

Tell us which cell viability value is on record for "CC(C)[C@H](CO)Nc1nc(Nc2ccc(C(=O)O)c(Cl)c2)c2ncn(C(C)C)c2n1"
79.1

Fill in cell viability for record "COc1ccc(Cn2ccc3ccc(C(=O)NO)cc32)cc1"
110

Read off the recorded cell viability for "N/C(=N\C(=O)c1nc(Cl)c(N)nc1N)NCc1ccccc1"
99.5

State, in one line, measured cell viability of "Nc1ccc([S+](=O)([O-])Nc2ccccn2)cc1"
108

For the compound "COc1cc2ncnc(Nc3ccc(F)c(Cl)c3)c2cc1OCCCN1CCOCC1" , report cell viability.
108

Assign cell viability to the following record: "CCCCc1oc2ccc(NS(C)(=O)=O)cc2c1C(=O)c1ccc(OCCCN(CCCC)CCCC)cc1"
109

Specify reported cell viability for the compound shown: "CC1(C)O[C@H]2CC(=O)OC[C@]23[C@H]2CC[C@@]4(C)[C@H](c5ccoc5)OC(=O)[C@H]5O[C@]54[C@]2(C)C(=O)C[C@@H]13"
76.6

Give the reported value of cell viability for this record: "Cn1cc(-c2ccc3ncc(Cc4ccc5ncccc5c4)n3n2)cn1"
106

Please list cell viability recorded for the compound "CC(C)(O)CNc1nc(Nc2ccnc(C(F)(F)F)c2)nc(-c2cccc(C(F)(F)F)n2)n1"
88.7

Give recorded cell viability. "CCOC(=O)c1ncn2c1CN(C)C(=O)c1cc(F)ccc1-2"
87.3

----------
system: NOMO1; experiment: cell viability relative to DMSO control; higher = less cytotoxic; conditions: HPLM + 10% dialyzed FBS; 48 h; 0.0632 µM
Readout Kind: cell viability (%)
Numbers only; they are read as %.

Consider the worked cases shown below.
O=C(NC1CC1)c1cccc(-c2ccc3c(NC(=O)C4CC4)n[nH]c3c2)c1 | 119
CN[C@@H](C)C(=O)N[C@H]1CCCC[C@H]2CC[C@@H](C(=O)N[C@@H](c3ccccc3)c3cn(CCCCc4ccc(CCCCn5cc([C@@H](NC(=O)[C@@H]6CC[C@@H]7CCCC[C@H](NC(=O)[C@H](C)NC)C(=O)N76)c6ccccc6)nn5)cc4)nn3)N2C1=O | 42.3

Now for the compound whose cell viability we want.
Retrieve cell viability measured for Clc1ccc(COC(Cn2ccnc2)c2ccc(Cl)cc2Cl)cc1 (stereo not drawn) and print it.
111

----------
system: SEM cells; assay: cell viability relative to DMSO control; higher = less cytotoxic; settings: HPLM + 10% dialyzed FBS; 48 h; 1.71 µM
Readout Kind: cell viability (%)
Give the number; % is assumed, so skip it.

CCCN[S+](=O)([O-])Nc1ncnc(OCCOc2ncc(Br)cn2)c1-c1ccc(Br)cc1 | 123
CC1=C2N=C([NH]C2=CC(=C1)N3CCOCC3)\C4=C(NC[C@@H](O)C5=CC=CC(=C5)Cl)\C=C/NC4=O | 52.5
CCOC(=O)c1ncn2c1CN(C)C(=O)c1cc(F)ccc1-2 | 90.7
CN(C(=O)c1ccc(F)cc1C(F)(F)F)C1CCN(c2nnc(-c3ccnn3C)c3ccccc23)CC1 | 78.6
CCOc1ccccc1OCCNC(C)Cc1ccc(OC)c([S+](N)(=O)[O-])c1 (stereo not given) | 103

Consider the compound "NC\1=N\C(=O)N(\C=N1)[C@H]2C[C@H](O)[C@@H](CO)O2" . State its measured cell viability.
71.3

Answer with the recorded cell viability for the compound listed here: "Nc1ccc([S+](=O)([O-])Nc2ccccn2)cc1"
98.8

Identify cell viability associated with the compound CC1OC(OC/2=C(/OC3=C(C(=CC(=C3)O)O)C2=O)C4=CC=C(O)C=C4)C(O)C(OC(C)=O)C1OC(C)=O (stereo not given)
113

Quote cell viability reported for "CCCCc1oc2ccc(NS(C)(=O)=O)cc2c1C(=O)c1ccc(OCCCN(CCCC)CCCC)cc1" please.
98.7

Respond only with cell viability recorded for "CN(C)[C@H]\1[C@@H]2[C@@H](O)[C@@H]\3C(=C)C4=C(C(=CC=C4)O)C(=O)C3=C(\O)[C@@]2(O)C(=O)\C(=C1O)C(N)=O"
113

Measured values drawn from the supplement of paper PMC11451515 for this set.
